Would you kindly list binding signal for each of these sequences?
system.name: OsWOX13 (Oryza sativa, UniProt Q5QMM3 1-267)
Sequence: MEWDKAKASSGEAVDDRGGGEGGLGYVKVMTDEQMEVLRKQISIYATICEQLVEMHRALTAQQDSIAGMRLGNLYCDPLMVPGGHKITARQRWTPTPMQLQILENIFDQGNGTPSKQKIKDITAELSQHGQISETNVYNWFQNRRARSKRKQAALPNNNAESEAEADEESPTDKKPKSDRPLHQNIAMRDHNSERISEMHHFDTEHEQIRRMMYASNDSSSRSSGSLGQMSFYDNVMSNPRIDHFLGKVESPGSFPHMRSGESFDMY
measurement.protocol: protein-binding microarray (RPBM); PBS, 2% BSA, 51.3 ng/ul salmon testes DNA, 50 uM zinc acetate, 200 nM TF, 25 C, 1 h; high values mean tight binding
reported.conditions: protein: recombinant; tags: N-terminal polyhistidine and DsRed monomer fusion (pET32a); label: CyDye5-dUTP incorporated in the synthesized complementary strand; 3' TTTTT single-stranded linker to array surface; dsDNA, one strand shown
The full ranking holds about 35,000 sequences; the median of “fluorescence intensity (a.u.)” is about 10,000, and the highest 2% start at about 52,000. This is one part of a sample in which the highest values are shown more often than they occur.

[
  {
    "chain.sequence": "TTTAATATTTATAATTAATGTCAAACATCAGATGTGATAGCGGAGTCACCTAGTGCAG",
    "observed": "12700 fluorescence intensity (a.u.)"
  }
]

Go through the items and report each one's binding signal.
1. TAATATTTAAATTAAACCTATAATCAAGCAGATGATTTATCGGAGTCACCTAGTGCAG
2. CAATTGTGAAATAATTAATTAAATTATCATTAAGCCCCAACGGAGTCACCTAGTGCAG
3. GCTATGATTGTCTTTAGGGTATCTAATAATTGTGGTTTGACGGAGTCACCTAGTGCAG
4. TTGACATAATATAATCATGTGATATCTTATTGTAAAGATTCGGAGTCACCTAGTGCAG
5. TTTAATCTTTAATATTGATTTTGCCACCAACTAAAACGGCCGGAGTCACCTAGTGCAG
6. TTTAATTGATAAATATTATCAATTATTAAACAGATAAGCGCGGAGTCACCTAGTGCAG

1: 8840 fluorescence intensity (a.u.); 2: 30300 fluorescence intensity (a.u.); 3: 21700 fluorescence intensity (a.u.); 4: 10400 fluorescence intensity (a.u.); 5: 4660 fluorescence intensity (a.u.); 6: 62800 fluorescence intensity (a.u.)

Go through the items and report each one's binding signal.
1. TAATAATTGATTAAACAGAGCAAATTTTAGCTTGCAGATACGGAGTCACCTAGTGCAG
2. TGAAATAATTAATTAAATTATCATTAAGCCCCAAACCGAGCGGAGTCACCTAGTGCAG

1: 48500 fluorescence intensity (a.u.); 2: 57300 fluorescence intensity (a.u.)

====

system.name: OsWOX13 (Oryza sativa, UniProt Q5QMM3 1-267)
Sequence: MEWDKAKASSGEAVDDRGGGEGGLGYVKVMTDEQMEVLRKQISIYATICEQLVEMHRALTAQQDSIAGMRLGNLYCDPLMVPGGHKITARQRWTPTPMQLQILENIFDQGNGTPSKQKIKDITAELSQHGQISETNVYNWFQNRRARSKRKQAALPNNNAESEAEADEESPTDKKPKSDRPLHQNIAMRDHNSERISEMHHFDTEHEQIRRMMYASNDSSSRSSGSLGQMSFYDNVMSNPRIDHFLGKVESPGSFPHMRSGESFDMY
measurement.protocol: protein-binding microarray (RPBM); PBS, 2% BSA, 51.3 ng/ul salmon testes DNA, 50 uM zinc acetate, 200 nM TF, 25 C, 1 h; high values mean tight binding
reported.conditions: protein: recombinant; tags: N-terminal polyhistidine and DsRed monomer fusion (pET32a); label: CyDye5-dUTP incorporated in the synthesized complementary strand; 3' TTTTT single-stranded linker to array surface; dsDNA, one strand shown
In all, about 35,000 sequences were measured (“fluorescence intensity (a.u.)”: median about 10,000, highest 2% from about 52,000 on). Only a selection was taken, and the highest values are over-represented in it overall.
property: binding signal

Reference set, count: 5
[
  {
    "chain.sequence": "CTTATAATTGATTTATAGTCTGTCATTGTATCTGCTCTTACGGAGTCACCTAGTGCAG",
    "binding signal": "65100 fluorescence intensity (a.u.)"
  },
  {
    "chain.sequence": "GTGATTGATGTAAATGCCTTAACGGTCCAGCACCTCAGCTCGGAGTCACCTAGTGCAG",
    "binding signal": "61200 fluorescence intensity (a.u.)"
  },
  {
    "chain.sequence": "TGCCAACTTATCCATCAATTGAGATTAATGATTTGGTCTTCGGAGTCACCTAGTGCAG",
    "binding signal": "13900 fluorescence intensity (a.u.)"
  },
  {
    "chain.sequence": "TTGATGATGTAACGTACGGTTGATTAATAATAAATTAGGTCGGAGTCACCTAGTGCAG",
    "binding signal": "18400 fluorescence intensity (a.u.)"
  },
  {
    "chain.sequence": "TCAATTAATTGATTTATAATGATTTGGTCTTATCAATCCCCGGAGTCACCTAGTGCAG",
    "binding signal": "53400 fluorescence intensity (a.u.)"
  }
]

Go through the items and report each one's binding signal.
1. AAAACCATCATCAATCAGCCGATCCTGATGTTGTCCCTGCCGGAGTCACCTAGTGCAG
2. ATTGATTATGCCATGATTGGATCTTGGCACAGTGCTCTGCCGGAGTCACCTAGTGCAG
3. TGTGATTAAATGATTCCTCCAGTGCTATATGCCTATATAACGGAGTCACCTAGTGCAG

25100 fluorescence intensity (a.u.)
60300 fluorescence intensity (a.u.)
17500 fluorescence intensity (a.u.)

Could you share which binding signal value was measured for ACAAATTGCCAACTCATGAAAGTGATCGATGATGGGCTTACGGAGTCACCTAGTGCAG ?
15700 fluorescence intensity (a.u.)

Origin of measurements: paper PMC7819943
